TESTED_TARGET: TRAF6/Uev1A/Ubc13 (Homo sapiens, UniProt Q9Y4K3)
Sequence (Q9Y4K3 whole entry): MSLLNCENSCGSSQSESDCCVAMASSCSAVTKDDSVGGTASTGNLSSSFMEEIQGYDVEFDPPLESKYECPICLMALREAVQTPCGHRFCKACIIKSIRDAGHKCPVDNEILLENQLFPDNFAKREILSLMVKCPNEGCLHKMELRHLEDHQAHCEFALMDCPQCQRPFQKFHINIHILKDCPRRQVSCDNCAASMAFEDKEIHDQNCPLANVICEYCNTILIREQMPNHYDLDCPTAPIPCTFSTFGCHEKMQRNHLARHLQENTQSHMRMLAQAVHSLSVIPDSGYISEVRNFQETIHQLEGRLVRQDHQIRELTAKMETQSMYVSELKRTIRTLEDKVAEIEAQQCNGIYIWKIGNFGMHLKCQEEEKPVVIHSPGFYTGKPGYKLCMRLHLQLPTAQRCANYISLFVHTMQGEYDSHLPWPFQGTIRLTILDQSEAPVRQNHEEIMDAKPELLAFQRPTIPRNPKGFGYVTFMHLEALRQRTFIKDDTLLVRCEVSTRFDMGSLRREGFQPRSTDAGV
TEST_SUMMARY: TRAF6/Uev1A/Ubc13 plate-based ubiquitin ligase assay
IC50: recorded values

Record excerpt, results attached:
{"COMPOUND": "O=S(=O)(Nc1ccc(F)cc1F)c1ccc(Nc2ccc(F)cc2F)c2nonc12", "IC50": "≥ 20 µM"}
{"COMPOUND": "CC(=O)Nc1ccc(-c2ccc(C(C)(C)C)cc2)c2nonc12", "IC50": "≥ 20 µM"}
{"COMPOUND": "COC(=O)c1ccc(NS(=O)(=O)c2ccc(Sc3ccc4ccccc4n3)c3nonc23)cc1 [compound 248]", "IC50": "≥ 20 µM"}
{"COMPOUND": "Cc1ccc(C)c(-c2cc([N+](=O)[O-])cc3nonc23)c1", "IC50": "≥ 20 µM"}
{"COMPOUND": "O=[N+]([O-])c1ccc(-c2ccc3c(c2)OCO3)c2nonc12", "IC50": "1 to 20 µM"}
{"COMPOUND": "N#Cc1cccnc1N1CCN(c2ccc([N+](=O)[O-])c3nonc23)CC1", "IC50": "1 to 20 µM"}
{"COMPOUND": "Cc1cccc(-c2ccc([N+](=O)[O-])c3nonc23)c1C", "IC50": "≥ 20 µM"}
{"COMPOUND": "O=[N+]([O-])c1c(N2CCCCC2)cc(N2CCN(c3ncc(C(F)(F)F)cc3Cl)CC2)c2nonc12", "IC50": "1 to 20 µM"}

INPUT: // IC50 lookup, key: O=[N+]([O-])c1ccc(N2CCN(c3ccc([N+](=O)[O-])c4nonc34)CC2)cc1
OUTPUT: 1 to 20 µM

----------
TESTED_TARGET: APC11/APC2 (Homo sapiens, UniProt Q9NYG5+Q9UJX6)
Sequence (Q9NYG5 whole entry): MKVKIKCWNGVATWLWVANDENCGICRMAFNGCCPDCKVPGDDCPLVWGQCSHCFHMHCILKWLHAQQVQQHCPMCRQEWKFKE
Sequence (Q9UJX6 whole entry): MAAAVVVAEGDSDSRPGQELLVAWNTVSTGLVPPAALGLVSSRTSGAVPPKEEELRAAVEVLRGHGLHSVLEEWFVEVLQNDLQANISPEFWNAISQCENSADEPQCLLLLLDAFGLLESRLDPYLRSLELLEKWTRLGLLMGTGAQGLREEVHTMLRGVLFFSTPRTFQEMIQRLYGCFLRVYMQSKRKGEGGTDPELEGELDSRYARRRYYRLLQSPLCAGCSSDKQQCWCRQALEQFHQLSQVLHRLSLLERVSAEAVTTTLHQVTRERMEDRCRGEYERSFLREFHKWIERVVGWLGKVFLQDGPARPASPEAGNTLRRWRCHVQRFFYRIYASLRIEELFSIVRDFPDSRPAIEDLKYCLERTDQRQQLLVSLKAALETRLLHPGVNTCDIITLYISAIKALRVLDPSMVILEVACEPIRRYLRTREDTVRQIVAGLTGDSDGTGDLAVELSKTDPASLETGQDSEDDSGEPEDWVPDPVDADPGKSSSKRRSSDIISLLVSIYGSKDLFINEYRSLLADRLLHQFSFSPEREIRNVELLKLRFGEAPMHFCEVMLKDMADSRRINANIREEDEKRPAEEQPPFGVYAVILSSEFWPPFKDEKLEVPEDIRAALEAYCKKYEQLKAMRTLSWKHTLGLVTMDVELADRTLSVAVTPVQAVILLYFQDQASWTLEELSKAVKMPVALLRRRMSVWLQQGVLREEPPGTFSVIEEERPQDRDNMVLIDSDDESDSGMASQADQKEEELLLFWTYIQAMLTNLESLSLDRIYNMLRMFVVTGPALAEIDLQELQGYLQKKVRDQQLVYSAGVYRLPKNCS
TEST_SUMMARY: APC-11/APC-2 ligase assay (APC auto ubiquitination)
EXPERIMENTAL_CONDITIONS: APC assay
pIC50: −log10 of the molar value.
MEASUREMENT_LABEL: pIC50

Record excerpt, results attached:
{"SMILES_ENTRY": "COc1ccccc1-c1cc(-c2ccccc2OC)c2nonc2c1", "TESTED_TARGET": "APC11/APC2 (Homo sapiens, UniProt Q9NYG5+Q9UJX6)", "pIC50": "≤ 4.70"}
{"SMILES_ENTRY": "COc1cc(Cl)c(C)cc1NS(=O)(=O)c1ccc(Cl)c2nonc12", "TESTED_TARGET": "APC11/APC2 (Homo sapiens, UniProt Q9NYG5+Q9UJX6)", "pIC50": "≤ 4.70"}

INPUT: // pIC50 lookup, key: Fc1cc2nsnc2cc1-c1cccc2c1OCO2
OUTPUT: ≤ 4.70

INPUT: Same lookup for O=C(c1ccc(F)cc1)C1CCN(c2ccc([N+](=O)[O-])c3nonc23)CC1 , please.
OUTPUT: 4.70 to 6.00

INPUT: Same lookup for O=S(=O)(Nc1ccccc1F)c1ccc(N2CCOCC2)c2nonc12 , please.
OUTPUT: ≤ 4.70

INPUT: Same lookup for O=S(=O)(Nc1cccc2ccc(O)cc12)c1ccc(N2CCOCC2)c2nonc12 , please.
OUTPUT: ≤ 4.70

INPUT: Same lookup for O=S(=O)(Nc1cccc2nonc12)c1ccc(Oc2ncc(C(F)(F)F)cc2Cl)cc1 , please.
OUTPUT: 4.70 to 6.00

INPUT: Same lookup for O=S(=O)(Nc1ccncn1)c1ccc(Cl)c2nonc12 , please.
OUTPUT: ≤ 4.70
